# SYSTEM_NAME: hGLP-1R (Homo sapiens, UniProt P43220)
# Sequence (P43220 24-463): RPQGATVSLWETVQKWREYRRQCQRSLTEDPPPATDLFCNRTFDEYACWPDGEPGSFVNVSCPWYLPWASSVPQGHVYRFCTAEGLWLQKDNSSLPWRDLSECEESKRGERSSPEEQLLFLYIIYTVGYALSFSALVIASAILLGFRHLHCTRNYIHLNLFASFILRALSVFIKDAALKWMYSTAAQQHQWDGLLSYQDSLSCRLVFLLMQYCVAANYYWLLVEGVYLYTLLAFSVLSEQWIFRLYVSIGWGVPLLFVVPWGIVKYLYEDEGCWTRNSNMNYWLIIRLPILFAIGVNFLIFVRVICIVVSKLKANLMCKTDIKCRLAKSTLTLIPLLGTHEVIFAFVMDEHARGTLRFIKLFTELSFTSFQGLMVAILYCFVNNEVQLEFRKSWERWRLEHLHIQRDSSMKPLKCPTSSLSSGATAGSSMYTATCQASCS
# TEST_DETAILS: cell-based or functional assay
Non-standard residues stand in square brackets, D forms with d. No end group written: not given here. αMePhe(2-F) = C[C@](N)(Cc1ccccc1F)C(=O)O; αMeL = CC(C)C[C@](C)(N)C(=O)O; Aib = CC(C)(N)C(=O)O
ENDPOINT: Relative cAMP EC50 (nM)
Give the quantity in nM, number only.

Solved cases below.
YXQGTXTSDXXIXLDXKAQXEFIEXLIEGGPPSXEPPPXGE (non-natural residues (Aib, αMeF(2F), 4Pal, Orn, Me4Pal); lipidated Lys; C-amide; synthetic construct; SITE 2: note = 2-Aminoisobutyric Acid; SITE 6: note = alpha-methyl-2-fluoro-L-phenylalanine; SITE 10: note = 3-(4-Pyridyl)-L-alanine; SITE 11: note = alpha-methyl-L-serine; SITE 13: note = alpha-methyl-leucine; SITE 16: note = L-ornithine; SITE 17: note = Lysine is chemically mo) [Example 1193]: 0.544
Y[Aib]QGT[αMePhe(2-F)]TSDFSILLDKQAQKAFIEYLLEGGPSSGEPPPSEG-NH2 (not fully specified (residue 20)) [Example 346]: 1.17
YXQGTXTSDXSIXLDKKAQXAFIEYLEEGGPSSGEPPPS (synthetic construct; SITE 2: note = 2-Aminoisobutyric Acid; SITE 6: note = alpha-methyl-2-fluoro-L-phenylalanine; SITE 10: note = 3-(4-Pyridyl)-L-alanine; SITE 13: note = alpha-methyl-leucine; SITE 17: note = Lysine is chemically modified through conjugation of the epsilon-amino group of the Lysine) [Example 442]: 0.267

Prompt: Looking for the measured Relative cAMP EC50 of Y[Aib]QGTFTSDYSI[αMeL]LDKQAAKQFVEWLIA[Aib]GPSSGEPPPGSG-NH2 (not fully specified (residue 20)) [Example 335] , can you help?
Response: 0.461

Prompt: Looking for the measured Relative cAMP EC50 of YXQGTFTSDFSRXLDKKAQXAFIEYLLAGGPSSGAPPPSGS (synthetic construct; SITE 2: note = 2-Aminoisobutyric Acid; SITE 13: note = alpha-methyl-leucine; SITE 17: note = Lysine is chemically modified through conjugation of the epsilon-amino group of the Lysine side chain with (2-[2-(2-Amino-ethoxy)-ethoxy]-acetyl)-(gamma-Glu)-CO-(CH2) 18-CO2H; SITE 20: n) [Example 77] , can you help?
Response: 1.85

Prompt: Looking for the measured Relative cAMP EC50 of YXQGTFTSDXSQXLDKKAQXAFIEYLIAGGESSGAPPPSGSEE (synthetic construct; SITE 2: note = 2-Aminoisobutyric Acid; SITE 10: note = 3-(4-Pyridyl)-L-alanine; SITE 13: note = alpha-methyl-leucine; SITE 17: note = Lysine is chemically modified through conjugation of the epsilon-amino group of the Lysine side chain with (gamma-Glu)2-CO-(CH2)16-CO2H; SITE 20:) [Example 963] , can you help?
Response: 1.77

Prompt: Looking for the measured Relative cAMP EC50 of YXQGTFTSDXSXXLDKKAQXAFIEXLIEXGPSSGEPPPSGS (Lys acylated (γ-Glu)2-C18 diacid; non-natural residues; C-terminal amide; synthetic construct; SITE 2: note = 2-Aminoisobutyric Acid; SITE 10: note = 3-(4-Pyridyl)-L-alanine; SITE 12: note = L-ornithine; SITE 13: note = alpha-methyl-leucine; SITE 17: note = Lysine is chemically modified through conjugation of the epsilon-amino group of the Lysine side chain with (gamma-Gl)) [Example 989] , can you help?
Response: 3.92
